# Experimental target: full-length ATR (Homo sapiens (Human), UniProt Q13535)
# Sequence (Q13535 whole entry): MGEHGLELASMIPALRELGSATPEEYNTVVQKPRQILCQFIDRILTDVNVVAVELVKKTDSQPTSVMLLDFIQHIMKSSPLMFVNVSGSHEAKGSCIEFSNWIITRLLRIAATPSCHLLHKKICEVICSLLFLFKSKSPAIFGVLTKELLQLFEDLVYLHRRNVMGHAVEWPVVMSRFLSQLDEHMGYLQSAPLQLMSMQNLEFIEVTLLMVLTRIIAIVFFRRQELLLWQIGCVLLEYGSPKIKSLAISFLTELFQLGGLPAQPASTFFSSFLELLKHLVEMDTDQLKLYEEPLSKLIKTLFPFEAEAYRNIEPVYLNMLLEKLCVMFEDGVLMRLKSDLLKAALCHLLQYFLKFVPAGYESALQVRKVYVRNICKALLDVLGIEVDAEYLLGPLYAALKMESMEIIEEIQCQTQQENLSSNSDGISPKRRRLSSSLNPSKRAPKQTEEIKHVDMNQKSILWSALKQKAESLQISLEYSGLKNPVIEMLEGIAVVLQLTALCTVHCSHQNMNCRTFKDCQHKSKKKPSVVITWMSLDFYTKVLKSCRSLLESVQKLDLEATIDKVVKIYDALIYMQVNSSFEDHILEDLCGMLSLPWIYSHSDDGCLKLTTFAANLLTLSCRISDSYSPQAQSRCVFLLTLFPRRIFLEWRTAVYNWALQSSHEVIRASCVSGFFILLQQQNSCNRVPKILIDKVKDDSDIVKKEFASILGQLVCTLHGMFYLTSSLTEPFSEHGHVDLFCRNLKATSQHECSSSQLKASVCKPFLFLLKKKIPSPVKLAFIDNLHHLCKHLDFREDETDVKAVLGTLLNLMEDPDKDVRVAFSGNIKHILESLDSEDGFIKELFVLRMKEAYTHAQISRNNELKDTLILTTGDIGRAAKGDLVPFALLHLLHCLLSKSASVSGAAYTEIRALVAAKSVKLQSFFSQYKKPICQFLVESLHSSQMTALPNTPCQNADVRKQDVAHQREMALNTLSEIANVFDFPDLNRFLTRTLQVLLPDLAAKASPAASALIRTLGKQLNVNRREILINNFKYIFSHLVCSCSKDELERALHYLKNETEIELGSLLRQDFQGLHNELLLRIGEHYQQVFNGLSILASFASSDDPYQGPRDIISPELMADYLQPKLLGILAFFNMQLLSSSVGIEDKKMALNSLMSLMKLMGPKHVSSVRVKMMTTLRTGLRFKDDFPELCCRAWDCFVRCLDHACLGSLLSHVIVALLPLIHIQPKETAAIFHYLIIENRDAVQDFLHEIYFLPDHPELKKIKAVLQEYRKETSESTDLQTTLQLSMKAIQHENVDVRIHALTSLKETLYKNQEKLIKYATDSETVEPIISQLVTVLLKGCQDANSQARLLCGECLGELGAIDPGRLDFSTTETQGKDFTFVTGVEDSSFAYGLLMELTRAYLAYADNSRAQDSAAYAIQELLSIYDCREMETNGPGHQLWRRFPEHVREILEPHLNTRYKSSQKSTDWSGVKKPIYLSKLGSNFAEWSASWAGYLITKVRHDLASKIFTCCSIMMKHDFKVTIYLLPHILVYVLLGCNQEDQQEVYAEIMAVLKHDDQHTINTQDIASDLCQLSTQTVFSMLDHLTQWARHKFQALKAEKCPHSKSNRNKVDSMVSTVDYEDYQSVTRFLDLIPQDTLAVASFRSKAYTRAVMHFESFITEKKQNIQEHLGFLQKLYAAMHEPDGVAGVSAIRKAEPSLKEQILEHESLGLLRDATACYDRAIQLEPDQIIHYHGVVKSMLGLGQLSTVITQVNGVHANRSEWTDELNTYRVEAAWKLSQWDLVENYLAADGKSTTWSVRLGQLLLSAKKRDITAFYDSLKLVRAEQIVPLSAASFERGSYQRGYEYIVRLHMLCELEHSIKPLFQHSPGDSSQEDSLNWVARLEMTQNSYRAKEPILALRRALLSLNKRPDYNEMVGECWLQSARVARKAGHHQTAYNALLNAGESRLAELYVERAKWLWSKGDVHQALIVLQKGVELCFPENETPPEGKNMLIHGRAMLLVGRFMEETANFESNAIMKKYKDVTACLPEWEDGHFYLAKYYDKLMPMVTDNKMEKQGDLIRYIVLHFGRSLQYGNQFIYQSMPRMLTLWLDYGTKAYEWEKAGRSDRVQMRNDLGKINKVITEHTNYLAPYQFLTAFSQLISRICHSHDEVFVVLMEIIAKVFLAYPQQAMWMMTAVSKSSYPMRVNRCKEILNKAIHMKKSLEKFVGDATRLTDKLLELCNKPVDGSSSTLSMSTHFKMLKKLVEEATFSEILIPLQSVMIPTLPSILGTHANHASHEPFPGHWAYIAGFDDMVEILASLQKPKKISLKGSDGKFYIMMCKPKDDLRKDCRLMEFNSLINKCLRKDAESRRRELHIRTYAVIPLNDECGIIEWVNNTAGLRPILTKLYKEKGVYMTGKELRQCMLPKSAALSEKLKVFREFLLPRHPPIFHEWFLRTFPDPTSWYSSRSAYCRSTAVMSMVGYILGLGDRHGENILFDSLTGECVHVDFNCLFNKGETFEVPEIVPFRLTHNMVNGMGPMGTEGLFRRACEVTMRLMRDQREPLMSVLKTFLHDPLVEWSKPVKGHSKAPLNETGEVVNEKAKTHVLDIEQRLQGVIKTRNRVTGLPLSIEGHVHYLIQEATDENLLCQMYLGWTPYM
# Experiment summary: ATR Inhibition Assay (radioactive-phosphate incorporation)
# Format: biochemical
# Assay setup: read-out: ATR Ki
pKi: −log10 of the molar value.
Recorded endpoint: pKi

• CC(CCN(C)C)S(=O)(=O)c1ccc(-c2cnc(N)c(-c3nnc(-c4ccccc4F)o3)n2)cc1 (centres unmarked) = ≥ 8.00
• CCC1CN(C(=O)c2ccc(-c3cnc(N)c(-c4nnc(-c5ccccc5)o4)n3)cc2)CCN1 (centres unmarked) = ≥ 8.00
• Nc1ncc(-c2cccnc2)nc1-c1nnc(-c2ccccc2)o1 = 7.00 to 8.00
• Nc1ncc(-c2ccc(C(=O)NCCN3CCCCC3)cc2)nc1C(=O)Nc1ccccc1 = 5.30 to 7.00
• Cc1csc(-c2nnc(-c3nc(-c4ccc(C(=O)N(C)C)cc4)cnc3N)o2)c1 = ≥ 8.00
• Cc1ncccc1NC(=O)c1nc(-c2ccc(S(C)(=O)=O)cc2)cnc1N = 7.00 to 8.00
• Nc1ncc(-c2ccccc2CO)nc1C(=O)Nc1ccccc1 = 7.00 to 8.00
• CN(C)C(=O)c1ccc(-c2cnc(N)c(-c3nnc(-c4ccccc4O)o3)n2)cc1 = ≥ 8.00
• CNCc1ccc(-c2nnc(-c3nc(-c4ccc(S(=O)(=O)CCCO)cc4)cnc3N)o2)cc1 = ≥ 8.00
• CC(=O)Nc1nnc(-c2nc(-c3ccc(S(=O)(=O)C(C)C)cc3)cnc2N)o1 = 7.00 to 8.00
• Nc1ncc(-c2cccnc2)nc1-c1nnc(-c2ccccc2)[nH]1 = 7.00 to 8.00
• CC(C)S(=O)(=O)c1ccc(-c2cnc(N)c(-c3nnc(N4CCNCC4)o3)n2)cc1 = 5.30 to 7.00
• CS(=O)(=O)c1ccc(-c2cnc(N)c(-c3nc4ccc(C(F)(F)F)cc4[nH]3)n2)cc1 = ≥ 8.00
• NC(=O)C1CCN(C(=O)c2cccc(-c3cnc(N)c(C(=O)Nc4ccccc4)n3)c2)CC1 = 5.30 to 7.00
• COc1cc(-c2cnc(N)c(C(=O)Nc3ccccc3)n2)ccn1 = 7.00 to 8.00
• CN(C)C(=O)c1ccc(-c2cnc(N)c(-c3nnc(N4CCOCC4)o3)n2)cc1 = 5.30 to 7.00
• Cc1ccc2nc(-c3nc(-c4ccc(C(=O)N5CCCNCC5)cc4)cnc3N)[nH]c2c1 [Compound I-153] = 7.00 to 8.00

---

# Experimental target: full-length ATR (Homo sapiens (Human))
# Experiment summary: ATR Inhibition Assay (radioactive-phosphate incorporation)
# Assay type: biochemical
# Assay setup: read-out: ATR Ki
# Experimental: Compounds were screened for their ability to inhibit ATR kinase using a radioactive-phosphate incorporation assay. Assays were carried out in a mixture of 50 mM Tris/HCl (pH 7.5), 10 mM MgCl2 and 1 mM DTT. […] After removing mean background values for all of the data points, Ki(app) data were calculated from non-linear regression analysis of the initial rate data using the Prism software package (GraphPad Prism version 3.0cx for Macintosh, GraphPad Software, San Diego Calif., USA).
pKi: −log10 of the molar value.
Recorded endpoint: pKi

• CC(C)S(=O)(=O)c1ccc(-c2cnc(N)c(-c3nnc(NCCCN)o3)n2)cc1 = 7.00 to 8.00
• Nc1ncc(-c2ccc(C(=O)N3CCCC3)cc2)nc1C(=O)Nc1ccccc1 = 7.00 to 8.00
• COC(=O)c1ccc2nc(-c3nc(-c4ccc(S(C)(=O)=O)cc4)cnc3N)[nH]c2c1 = 5.30 to 7.00
• CN(C)C(=O)c1ccc(-c2cnc(N)c(-c3nnc(Nc4cccc(C#N)c4)o3)n2)cc1 = 5.30 to 7.00
• CC(C)S(=O)(=O)c1ccc(-c2cnc(N)c(-c3nnc(-c4ccc5c(c4)CCNC5)o3)n2)cc1 = ≥ 8.00
• CC(C)S(=O)(=O)c1ccc(-c2cnc(N)c(-c3nnc(-c4ccccc4O)o3)n2)cc1 = ≥ 8.00
• Nc1ncc(-c2cccc3[nH]ccc23)nc1-c1nnc(-c2ccccc2)o1 = 7.00 to 8.00
• CCc1ccccc1-c1nnc(-c2nc(-c3ccc(C(=O)N(C)C)cc3)cnc2N)o1 = 7.00 to 8.00
• COC(=O)N1CCCN(C(=O)c2ccc(-c3cnc(N)c(-c4nnc(-c5ccccc5)o4)n3)cc2)CC1 = ≥ 8.00
• Nc1ccccc1-c1cnc(N)c(-c2nnc(-c3ccccc3)o2)n1 = 7.00 to 8.00
• CN(C)[C@@H]1CCN(C(=O)c2ccc(-c3cnc(N)c(-c4nnc(-c5ccccc5)o4)n3)cc2)C1 = ≥ 8.00
• Nc1ncc(-c2ccc(F)c(C(=O)N3CCOCC3)c2)nc1-c1nc2ccccc2[nH]1 = 7.00 to 8.00
• Nc1ncc(-c2cccc(C(F)(F)F)c2)nc1-c1nnc(-c2ccccc2)o1 = 5.30 to 7.00
• Nc1ncc(-c2cccnc2)nc1-c1nnc(-c2cccs2)[nH]1 [Compound I-142] = 7.00 to 8.00
• Nc1ncc(-c2ccc(C(=O)N3CCCNCC3)cc2)nc1C(=O)Nc1n[nH]c2ccccc12 = ≥ 8.00
• CC(C)S(=O)(=O)c1ccc(-c2cnc(N)c(-c3nnc(N4CCC(CN)CC4)o3)n2)cc1 = 7.00 to 8.00
• Nc1ncc(-c2ccc(C(=O)N3CCCNCC3)cc2)nc1C(=O)Nc1cc2ccccc2[nH]1 [Compound V-26] = 5.30 to 7.00

---

# Experimental target: full-length ATR (Homo sapiens (Human), UniProt Q13535)
# Experiment summary: ATR Inhibition Assay (radioactive-phosphate incorporation)
# Format: biochemical
# Assay setup: read-out: ATR Ki
Recorded endpoint: Ki

- Nc1ncc(-c2ccncc2)nc1C(=O)Nc1ccccc1: 100 to 5000 nM
- CNCc1ccc(-c2nnc(-c3nc(-c4ccc(S(=O)(=O)NCCO)cc4)cnc3N)o2)cc1: ≤ 10 nM
- CC(=O)Nc1ccc(-c2cnc(N)c(-c3nnc(-c4ccccc4)o3)n2)cc1: 10 to 100 nM
- CC(C)S(=O)(=O)c1ccc(-c2cnc(N)c(-c3cc(-c4ccc(CN)cc4)no3)n2)cc1: ≤ 10 nM
- CC(C)S(=O)(=O)c1ccc(-c2cnc(N)c(-c3nnc(-c4cccc(C5CNC5)c4)o3)n2)cc1: 10 to 100 nM
- CNCc1ccc(-c2nnc(-c3nc(-c4ccc(S(=O)(=O)C(C)C)cc4)cnc3N)o2)cc1O: ≤ 10 nM
- CC(C)c1ccccc1-c1cnc(N)c(-c2nnc(-c3ccccc3)o2)n1: 100 to 5000 nM
- COc1ccccc1-c1cnc(N)c(-c2nnc(-c3ccccc3)o2)n1: 100 to 5000 nM
- CN1CCC(NC(=O)c2cccc(-c3cnc(N)c(C(=O)Nc4ccccc4)n3)c2)CC1: 100 to 5000 nM
- CN(C)C(=O)c1ccc(-c2cnc(N)c(-c3nnc(-c4cccc(O)c4)o3)n2)cc1: 10 to 100 nM
- Nc1ncc(-c2cccc(N3CCOCC3)c2)nc1C(=O)Nc1ccccc1: 100 to 5000 nM
- Nc1ncc(-c2cccc(C(=O)N3CCOCC3)c2)nc1C(=O)Nc1ccccc1: 10 to 100 nM
- Nc1ncc(-c2cccc(C(=O)N3CCOCC3)c2)nc1-c1nc2ccccc2[nH]1: 10 to 100 nM
- Nc1ncc(-c2ccc(C(=O)N3CCCOCC3)cc2)nc1-c1nnc(-c2ccccc2)o1: ≤ 10 nM
- CN(C)Cc1ccc(-c2cnc(N)c(-c3nnc(-c4ccc(CO)cc4)o3)n2)cc1: 100 to 5000 nM
- Nc1ncc(-c2cccnc2)nc1C(=O)Nc1ccc(F)cc1: 100 to 5000 nM
- CN(C)C(=O)c1ccc(-c2cnc(N)c(-c3nnc(-c4ccc(C(O)CO)cc4)o3)n2)cc1 (stereo not drawn): 10 to 100 nM
- Nc1ncc(-c2ccc(C(=O)N3CCNCC3)cc2)nc1-c1nnc(-c2ccccc2)o1: 10 to 100 nM

---

# Experimental target: full-length ATR (Homo sapiens (Human), UniProt Q13535)
# Experiment summary: ATR Inhibition Assay (radioactive-phosphate incorporation)
# Type: biochemical
# Assay setup: read-out: ATR Ki
Measured Ki values are reported for all entries that follow.
Recorded endpoint: Ki

• C[S+]([O-])c1ccccc1-c1cnc(N)c(-c2nnc(-c3cccc(CN)c3)o2)n1 (centres unmarked) = ≤ 10 nM
• CC(C)S(=O)(=O)c1ccc(-c2cnc(N)c(-c3nnc(-c4ccc([C@@H](C)N)cc4)o3)n2)cc1 = ≤ 10 nM
• Nc1ncc(-c2ccc(C(=O)N3CCCNCC3)cc2)nc1-c1nnc(-c2ccccc2)s1 = ≤ 10 nM
• CN(C)C(=O)c1ccc(-c2cnc(N)c(-c3nnc(-c4cccnc4)o3)n2)cc1 = 10 to 100 nM
• Cc1ccc2nc(-c3nc(-c4ccc(C(=O)N5CCCNCC5)cc4)cnc3N)[nH]c2c1 [III-1] = 10 to 100 nM
• CC(C)S(=O)(=O)c1ccc(-c2cnc(N)c(-c3nnc(N4CCCC(N)C4)o3)n2)cc1 (centres unmarked) = 100 to 5000 nM
• NC(=O)C1CCN(C(=O)c2ccc(-c3cnc(N)c(C(=O)Nc4ccccc4)n3)cc2)CC1 = 10 to 100 nM
• COc1ccccc1NC(=O)c1nc(-c2ccc3[nH]ncc3c2)cnc1N = 10 to 100 nM
• CC(C)S(=O)(=O)c1ccc(-c2cnc(N)c(-c3nnc(-c4ccc(CNCC(C)(C)O)cc4F)o3)n2)cc1 = ≤ 10 nM
• CC(=O)NCc1ccc(-c2cnc(N)c(-c3nc4ccccc4[nH]3)n2)cc1 = 100 to 5000 nM
• COc1ccc(C)cc1NC(=O)c1nc(-c2cccnc2)cnc1N = ≤ 10 nM
• COc1ccc(-c2cnc(N)c(-c3nnc(-c4ccccc4)o3)n2)cn1 = 100 to 5000 nM
• CNCc1ccc(-c2nnc(-c3nc(-c4ccc(S(=O)(=O)C(C)C)c(Cl)c4)cnc3N)o2)c(F)c1 = ≤ 10 nM
• CNCc1ccc(-c2cc(-c3nc(-c4ccc(S(=O)(=O)C(C)C)cc4)cnc3N)on2)cc1Cl = ≤ 10 nM
• CC(CN(C)C)S(=O)(=O)c1ccc(-c2cnc(N)c(-c3nnc(-c4ccccc4F)o3)n2)cc1 (centres unmarked) = ≤ 10 nM
• Nc1ncc(-c2ccccc2)nc1-c1nc2ccccc2[nH]1 = 100 to 5000 nM
• Nc1ncc(-c2cccc(C(=O)NCCN3CCCC3)c2)nc1C(=O)Nc1ccccc1 = 100 to 5000 nM
